Assay: In vitro anti-plasmodial activity against Plasmodium falciparum dihydrofolate reductase C59R/S108N (K1CB1) mutant
Measurement Type: IC50
Include the unit right after the number.

Query string: Quick one: IC50 of NC1=NC(c2cccc(OCCCOc3cc(Cl)c(Cl)cc3Cl)c2)N(c2cccc(Cl)c2)C(N)=N1 (centres undefined) ?
Result string: 7.4 µM

Query string: Input NC1=NC(c2ccc(Oc3ccccc3)cc2)N(c2ccc(Cl)cc2)C(N)=N1 (centres undefined)
Result string: 3.1 µM

Query string: Input CCCOc1ccc(C2N=C(N)N=C(N)N2c2cccc(Cl)c2)cc1 (centres undefined)
Result string: 1 µM

Query string: Input NC1=NC(c2cccc(Oc3ccc(Cl)cc3)c2)N(c2cccc(Cl)c2)C(N)=N1 (centres undefined)
Result string: 2.6 µM

* * *

Assay: In vitro anti-plasmodial activity against Plasmodium falciparum dihydrofolate reductase wild type (TM4/8.2)
Kindly supply the reported IC50 values for the records listed here.

Query string: Quick one: IC50 of CCCCCCCC1N=C(N)N=C(N)N1c1cccc(Cl)c1 (configuration not stated) ?
Result string: 40 nM

Query string: Input `Nc1nc(N)c(-c2cccc(Cl)c2)c(CCCOC(=O)OCc2ccccc2)n1`
Result string: 1900 nM

Query string: Input `Nc1nc(N)c(-c2ccccc2)c(CCCc2ccccc2)n1`
Result string: 210 nM

Query string: Input NC1=NC(c2cccc(Oc3cccc(C(F)(F)F)c3)c2)N(c2cccc(Cl)c2)C(N)=N1 (configuration not stated)
Result string: 3200 nM

Query string: Input NC1=NC(c2cccc(Oc3ccc(Cl)cc3)c2)N(c2ccc(Cl)cc2)C(N)=N1 (configuration not stated)
Result string: 2800 nM

Query string: Input NC1=NC(c2cccc(Oc3ccccc3)c2)N(c2cccc(Cl)c2)C(N)=N1 (configuration not stated)
Result string: 2200 nM

Query string: Input NC1=NC(c2cccc(Oc3ccc(Cl)cc3)c2)N(c2cccc(Cl)c2)C(N)=N1 (configuration not stated)
Result string: 3900 nM

Query string: Input NC1=NC(c2ccc(Oc3ccccc3)cc2)N(c2ccc(Cl)cc2)C(N)=N1 (configuration not stated)
Result string: 120 nM

Query string: Input `Nc1nc(N)c(-c2cccc(Cl)c2)c(CCCc2ccccc2)n1`
Result string: 670 nM

Query string: Input CCCCCCC1(C)N=C(N)N=C(N)N1c1ccc(Cl)cc1 (configuration not stated)
Result string: 20 nM

Query string: Input CC1(C)N=C(N)N=C(N)N1c1ccc(Cl)cc1 [Chlorazin]
Result string: 40 nM

Query string: Input NC1=NC(c2cccc(Oc3cc(Cl)cc(Cl)c3)c2)N(c2cccc(Cl)c2)C(N)=N1 (configuration not stated)
Result string: 5500 nM

Query string: Input CCCCCCC1(C)N=C(N)N=C(N)N1c1cccc(Cl)c1 (configuration not stated)
Result string: 60 nM

Query string: Input CCCOc1ccc(C2N=C(N)N=C(N)N2c2cccc(Cl)c2)cc1 (configuration not stated)
Result string: 250 nM

Query string: Input `CCc1nc(N)nc(N)c1-c1cccc(Cl)c1`
Result string: 420 nM

Query string: Input NC1=NC(c2cccc(OCc3ccccc3)c2)N(c2cccc(Cl)c2)C(N)=N1 (configuration not stated)
Result string: 4000 nM

Query string: Input CCCC1(C)N=C(N)N=C(N)N1c1cccc(Cl)c1 (configuration not stated)
Result string: 180 nM

Query string: Input `Nc1nc(N)c(-c2cccc(Cl)c2)c(CCCOC(=O)c2ccccc2)n1`
Result string: 2100 nM

Query string: Input NC1=NC(c2cccc(OCCCOc3cc(Cl)c(Cl)cc3Cl)c2)N(c2cccc(Cl)c2)C(N)=N1 (configuration not stated)
Result string: 3000 nM

Query string: Input NC1=NC(c2ccccc2)N(c2cccc(Cl)c2)C(N)=N1 (configuration not stated)
Result string: 560 nM

Query string: Input NC1=NC(c2ccc(Oc3ccccc3)cc2)N(c2cccc(Cl)c2)C(N)=N1 (configuration not stated)
Result string: 650 nM

Query string: Input `CC(=O)OCCCc1nc(N)nc(N)c1-c1cccc(Cl)c1`
Result string: 1600 nM

Attribution: BindingDB's records for doi:10.1021/jm030165t
